target: Endoplasmic reticulum aminopeptidase 1 (ERAP1) (UniProt Q9NZ08 1-941, limits assumed); assay: cell-based or functional assay
Sequence (Q9NZ08 whole entry): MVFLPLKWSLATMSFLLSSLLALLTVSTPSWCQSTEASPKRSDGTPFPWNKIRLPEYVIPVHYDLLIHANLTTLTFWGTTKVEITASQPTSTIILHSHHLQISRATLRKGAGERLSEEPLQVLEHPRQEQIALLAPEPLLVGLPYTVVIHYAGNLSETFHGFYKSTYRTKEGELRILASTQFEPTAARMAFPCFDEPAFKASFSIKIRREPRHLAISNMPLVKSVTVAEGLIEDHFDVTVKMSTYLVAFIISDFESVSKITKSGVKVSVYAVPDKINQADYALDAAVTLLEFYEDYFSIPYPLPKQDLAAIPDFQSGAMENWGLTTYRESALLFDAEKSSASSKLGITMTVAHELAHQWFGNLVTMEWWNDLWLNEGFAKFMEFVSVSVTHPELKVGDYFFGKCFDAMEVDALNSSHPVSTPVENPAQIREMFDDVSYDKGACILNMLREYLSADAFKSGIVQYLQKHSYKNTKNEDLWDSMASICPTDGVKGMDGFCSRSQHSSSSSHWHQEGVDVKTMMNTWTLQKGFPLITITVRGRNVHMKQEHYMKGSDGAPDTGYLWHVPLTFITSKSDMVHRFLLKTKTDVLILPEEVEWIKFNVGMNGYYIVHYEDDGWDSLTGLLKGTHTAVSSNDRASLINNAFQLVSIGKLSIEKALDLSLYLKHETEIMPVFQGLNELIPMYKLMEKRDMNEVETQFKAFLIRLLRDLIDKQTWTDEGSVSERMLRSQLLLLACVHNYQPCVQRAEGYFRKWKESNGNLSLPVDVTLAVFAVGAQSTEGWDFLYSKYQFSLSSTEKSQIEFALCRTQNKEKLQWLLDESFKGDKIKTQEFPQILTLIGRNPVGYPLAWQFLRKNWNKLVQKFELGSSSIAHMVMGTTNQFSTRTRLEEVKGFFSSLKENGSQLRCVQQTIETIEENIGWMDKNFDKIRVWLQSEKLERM
property: formation rate (%) 1 hr later

Field: example entries. Status: answers known.
>  <binder>
CAVLQELNVTV [peptide CAVLQELNVTV (SEQ ID NO: 92)]

>  <property>
formation rate (%) 1 hr later

>  <endpoint_value>
46.1

$$$$
>  <binder>
CLGLYDGMEHL [peptide CLGLYDGMEHL (SEQ ID NO: 90)]

>  <property>
formation rate (%) 1 hr later

>  <endpoint_value>
58.3

$$$$
>  <binder>
H-CGLYDGMEHL-OH [peptide CGLYDGMEHL (SEQ ID NO: 98)]

>  <property>
formation rate (%) 1 hr later

>  <endpoint_value>
95.1

$$$$
>  <binder>
CAGLYDGMEHL [peptide CAGLYDGMEHL (SEQ ID NO: 89)]

>  <property>
formation rate (%) 1 hr later

>  <endpoint_value>
87.8

$$$$
>  <binder>
CLVLQELNVTV [peptide CLVLQELNVTV (SEQ ID NO: 93)]

>  <property>
formation rate (%) 1 hr later

>  <endpoint_value>
31.1

$$$$
>  <binder>
CMGLYDGMEHL [peptide CMGLYDGMEHL (SEQ ID NO: 91)]

>  <property>
formation rate (%) 1 hr later

>  <endpoint_value>
90.6

$$$$

P = CVLQELNVTV [peptide CVLQELNVTV (SEQ ID NO: 99)]
Q = CMVLQELNVTV [peptide CMVLQELNVTV (SEQ ID NO: 94)]
**Q:** // max by formation rate (%) 1 hr later over [ P , Q ] When you have decided, please share the label of that item.
**A:** P
